src = patent US20040254241A1

Biological target: recombinant human estrone sulfatase (Homo sapiens, UniProt P08842)
Construct: made in house; host or cells: Chinese Hamster Ovary (CHO) cells
Sequence (P08842 22-583): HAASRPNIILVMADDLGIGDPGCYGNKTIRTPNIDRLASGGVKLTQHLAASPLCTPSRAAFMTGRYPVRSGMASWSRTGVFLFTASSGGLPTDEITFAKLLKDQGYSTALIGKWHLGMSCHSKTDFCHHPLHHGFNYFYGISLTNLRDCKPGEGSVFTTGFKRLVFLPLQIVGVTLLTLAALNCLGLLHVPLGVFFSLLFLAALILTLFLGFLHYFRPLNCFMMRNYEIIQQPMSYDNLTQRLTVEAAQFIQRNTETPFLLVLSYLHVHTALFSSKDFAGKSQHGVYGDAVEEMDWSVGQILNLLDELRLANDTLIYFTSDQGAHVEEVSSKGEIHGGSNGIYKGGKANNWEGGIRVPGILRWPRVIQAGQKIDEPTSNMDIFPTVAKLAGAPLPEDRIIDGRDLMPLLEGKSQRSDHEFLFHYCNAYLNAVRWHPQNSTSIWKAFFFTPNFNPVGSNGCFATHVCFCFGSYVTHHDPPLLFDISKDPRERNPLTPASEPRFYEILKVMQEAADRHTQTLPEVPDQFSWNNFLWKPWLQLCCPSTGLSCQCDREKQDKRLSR
Assay: Test for inhibition of estrone sulfatase (steroid sulfatase)
Type: biochemical
Details: 4-methylumbelliferyl sulfate 0.3 mmol/L, phosphate buffer pH 7.5, 37° C., 1 hour; enzyme expressed in CHO cells, partially purified; read-out: Inhibitory activity against steroid sulfatase IC50
Observation type: IC50 (nM)
Answers are plain numbers, in nM.

[
  {
    "Mol smiles": "CCCCCCCCCNC(=O)/C(C#N)=C(\\C)c1ccc(OS(N)(=O)=O)c(Br)c1",
    "Tested target": "recombinant human estrone sulfatase (Homo sapiens, UniProt P08842)",
    "Observation type": "IC50",
    "Measurement unit": "nM",
    "Value": 41
  },
  {
    "Mol smiles": "CCCCCCCCCNC(=O)/C(C)=C/c1ccc(OS(N)(=O)=O)cc1",
    "Tested target": "recombinant human estrone sulfatase (Homo sapiens, UniProt P08842)",
    "Observation type": "IC50",
    "Measurement unit": "nM",
    "Value": 61
  },
  {
    "Mol smiles": "CCCCCCCCCNC(=O)/C(C#N)=C(\\C)c1ccc(OS(N)(=O)=O)cc1",
    "Tested target": "recombinant human estrone sulfatase (Homo sapiens, UniProt P08842)",
    "Observation type": "IC50",
    "Measurement unit": "nM",
    "Value": 12
  },
  {
    "Mol smiles": "CCCCCCCCCNC(=O)/C(I)=C/c1ccc(OS(N)(=O)=O)cc1",
    "Tested target": "recombinant human estrone sulfatase (Homo sapiens, UniProt P08842)",
    "Observation type": "IC50",
    "Measurement unit": "nM",
    "Value": 59
  },
  {
    "Mol smiles": "CCCCCCCCCNC(=O)/C(C#N)=C(\\C)c1ccc(OS(N)(=O)=O)c(Cl)c1",
    "Tested target": "recombinant human estrone sulfatase (Homo sapiens, UniProt P08842)",
    "Observation type": "IC50",
    "Measurement unit": "nM",
    "Value": 38
  }
]

For each entry beneath this line, provide reported IC50.
1. CCCCCCCCCNC(=O)/C(Br)=C/c1ccc(OS(N)(=O)=O)cc1
2. CCCCCCCCCNC(=O)/C=C/c1ccc(OS(N)(=O)=O)cc1

[reply]
1: 54; 2: 73
